- Tested on: LOX IMVI
- measurement_description: NCI tumour cell line growth inhibition, 48 h
Active and inactive are the calls of the source. Rule as the data show it: active = GI50 up to about 1.1 µM and inactive = higher.
measured_quantity: GI50

As a guide, the following entries are already answered.
Nc1nncs1    1450 µM (inactive)
CCN1c2ccccc2-n2c(C)nnc2-c2c(-c3ccccc3)n[nH]c21    23.1 µM (inactive)
c1ccncc1    > 100 µM (inactive)
CC(C)N(C(=O)c1ccc(NCc2cc(O)ccc2O)cc1)C(C)C    14.7 µM (inactive)
CC1(C)C(c2ccccc2)C12CCC1(C2=O)C(c2ccccc2)C1(C)C (stereo unspecified)    20.2 µM (inactive)

Return reported GI50; argument: CCOc1ccc(N/C(Cl)=C(Cl)\C(=C(\Nc2ccc(OCC)cc2)n2nnc3ccccc32)[N+](=O)[O-])cc1 1.65 µM (inactive)

And the next one, O=C(CCc1ccccc1)n1cccc1CO ? > 100 µM (inactive)

Another compound to check: CN(/N=C/c1cccc2cccnc12)c1c([N+](=O)[O-])cc([N+](=O)[O-])cc1[N+](=O)[O-] 45.3 µM (inactive)

Thanks! And CSC1NNC2(C(=O)N1)c1ccccc1-c1ccccc12 (stereo unspecified) ? > 10 µM (inactive)

Next compound: CC(=O)CC(=O)CCCC(=O)Nc1ccc(Cl)cc1Cl > 100 µM (inactive)

Moving on to the next compound: CC(=O)Nc1ccc2c(c1)C(=O)c1cccc(F)c1-2 38.2 µM (inactive)

====

Recorded GI50 for the following compounds
- System: EKVX
- measurement_description: NCI tumour cell line growth inhibition, 48 h
Calls of active or inactive are those of the source. No stated cut-off is given here; in the data, active = GI50 up to about 1.1 µM and inactive = higher.

NCCCCCCNCc1cccc2ccccc12    > 100 µM (inactive)

What measured GI50 goes with O=C(O)C1CCCCC1C(=O)Nc1nc2ccccc2[nH]1 (stereo unspecified) ? 63 µM (inactive)

Let us now turn to N=C(N)SCc1cn2ccccc2n1 > 100 µM (inactive)

Can you handle CC(=O)OC1CCC2(C)C(CCC3C2CC(=O)C2(C)C3CC(N3CC3)C2C(C)=O)C1 (stereo unspecified) next? 18.4 µM (inactive)

Would you mind doing [N-]=[N+]=NC1OC(=O)C(Cl)=C1N=P(c1ccccc1)(c1ccccc1)c1ccccc1 (stereo unspecified) as well? > 10 µM (inactive)

Now the compound O=C(Nc1ccc(Cl)cc1Cl)C(=O)C(C(=O)c1ccc2ccccc2c1)C1OC(=O)c2ccccc21 (stereo unspecified) 15.9 µM (inactive)

====

- Test system: TK-10
- measurement_description: NCI tumour cell line growth inhibition, 48 h
The source made the active and inactive calls. No stated cut-off is given here; in the data, active = GI50 up to about 1.1 µM and inactive = higher.
measured_quantity: GI50

COc1ccc(NC(C)=O)cc1N1C(=O)/C(=C\c2cc(OC)c(OC)c(OC)c2)SC1c1ccccc1 (stereo not given)    > 100 µM (inactive)

What GI50 value was documented for this molecule, O=C1O/C(=C\c2ccc(O)c(Br)c2)C(c2ccc(O)c(Cl)c2)=C1Br ? 25.2 µM (inactive)

What do you get for Cc1ccc(/N=N/C(=N\c2ccc(F)cc2)c2ccc(N(CCC#N)CCC#N)cc2)cc1 ? > 100 µM (inactive)

Proceed to O=C(N/C(=C\NC1=NCCS1)C(=O)N1CSC[C@@H]1C(=O)O)c1ccccc1 > 100 µM (inactive)

// repeat for COc1ccccc1/C=C1\CCC(Cc2ccccc2)(CN(C)C)C1=O (stereo not given) and report 5.96 µM (inactive)

Same question, O=C(NN1C(=O)c2ccccc2C1=O)c1ccccc1Nc1ccccc1C(=O)NN1C(=O)c2ccccc2C1=O this time > 100 µM (inactive)

====

- Test system: RPMI-8226
- measurement_description: NCI tumour cell line growth inhibition, 48 h
Active and inactive are the calls of the source. No stated cut-off is given here; in the data, active = GI50 up to about 1.1 µM and inactive = higher.
Outcome (select one): Yes (active), No (inactive)

Consider the worked cases shown below.
CCOC(=O)C1=C(C)N(c2ccccc2)C2=C(C(=O)N(c3ccccc3)C2c2ccccc2)C1c1ccccc1 (stereo not given)    No
COC(=O)C1=C(c2ccc3c(c2)OCO3)O[C@H](c2cc(OC)c(OC)c(OC)c2)[C@H]1COC(C)=O    No
O=[N+]([O-])/C(C(Cl)=C(Cl)Cl)=C(/Br)SCc1ccccc1    Yes
CC1=C(C(=O)Nc2ccccc2C)C(c2ccc([N+](=O)[O-])cc2)C(C(=O)Nc2ccccc2C)=C(C)N1    No
CCN1c2ccccc2-n2c(C)nnc2-c2c(-c3ccccc3)n[nH]c21    No

From here, focus on the item given below.
Query: recorded result category for N=C(N)SCc1ccc(N=C=S)cc1 in this test No

====

- Tested on: HL-60
- measurement_description: NCI tumour cell line growth inhibition, 48 h
Activity calls are given as the source filed them. No stated cut-off is given here; in the data, active = GI50 up to about 1.1 µM and inactive = higher.
Outcomes you can answer with include only these: t = active, f = inactive

O=C(Nc1ccc(Cl)cc1)NS(=O)(=O)c1ccc2c(c1)CCC2    f
O=C1[C@@H](c2ccc(Cl)cc2)[C@H]2CC=C[C@H]2N1O    f

Call for entry CC1=C2C(c3ccccc3)(c3ccccc3)C3C=CC2(C=N3)N(C(=O)NC2CCCCC2)C1=O (stereo not given) : f

Now the compound O=C1c2ccccc2C(=O)c2sc(Nc3ccc(Cl)c(Cl)c3)nc21 t

Moving on to Cc1c(/C=N/NC(=O)c2ccc(Cl)cc2)c(=O)n(-c2ccccc2)n1C f

====

Attribute: GI50
- System: SK-OV-3
- measurement_description: NCI tumour cell line growth inhibition, 48 h
The source made the active and inactive calls. Cut-off read from the data, not from the text of the source: active = GI50 up to about 1.1 µM and inactive = higher.

Cc1cccnc1N/C=C1\C(=O)NC(=O)N(C)C1=O    > 100 µM (inactive)
COc1c(C)c(O)c2c(=O)cc(-c3ccccc3)oc2c1C    > 100 µM (inactive)
Cc1cc(Cc2cc(C)c(NC(=O)C(=O)C3CCC4=C(SC5C=CC=CC5N4)C3=O)c(C(C)C)c2)cc(C(C)C)c1NC(=O)C(=O)C1CCC2=C(SC3C=CC=CC3N2)C1=O (centres undefined)    > 100 µM (inactive)
Cc1ccc(S(=O)(=O)NC(=O)Nc2cccc(S(N)(=O)=O)c2)cc1    > 100 µM (inactive)

What value of GI50 has been reported for the following compound? O=C1c2cccc3c(Cl)ccc(c23)C(=O)N1CCCN1CCN(CCCN2C(=O)c3cccc4c(Cl)ccc(c34)C2=O)CC1 > 100 µM (inactive)

// query: CCOC1(COP(=O)(OCc2ccccc2)OCc2ccccc2)COC(COP(=O)(OCc2ccccc2)OCc2ccccc2)(OCC)CO1 (centres undefined) > 100 µM (inactive)

What do we get for O=C(Nc1cccc(NC(=O)C(=O)C2CCC3=C(Sc4ccccc4N3)C2=O)n1)C(=O)C1CCC2=C(Sc3ccccc3N2)C1=O (centres undefined) ? > 100 µM (inactive)

Same question for Cc1c(C)c2ccc(OCC(O)COC(C)C)c(C)c2oc1=O (centres undefined) please. > 100 µM (inactive)

Same for C=CCOCCCCC(C(C)=O)C(=O)OC (centres undefined) > 100 µM (inactive)

====

- System: K562
- measurement_description: NCI tumour cell line growth inhibition, 48 h
The source made the active and inactive calls. Cut-off read from the data, not from the text of the source: active = GI50 up to about 1.1 µM and inactive = higher. Peptide text beside a SMILES is read from it. * marks the point of attachment. OSu = O=C1CCC(=O)N1O*
Answer with one of the outcomes given here: true = active, false = inactive

Here's what some known entries look like.
COC1(OC)CCCCCCCCC(OC)(OC)CCCCCCCC1    false
Nc1nncs1    false
C/C(Nc1ccc(Cl)cc1)=C1/CCOC1=O    true
Cc1cccc(C(C)(C)C)c1NC(=O)C(=O)C(c1cnc2ccccc2n1)[N+](=O)[O-] (stereo not given)    false
Cc1ccc2c(c1C)-c1c(ccc(C)c1C)C(=O)C2=O    true

Could you check what this test reported for NCCCCC(NC(=O)C(N)Cc1ccc(O)cc1)C(=O)NC(Cc1ccc(O)cc1)C(=O)NC(CCCCN)C(=O)ON1C(=O)CCC1=O (stereo not given) (H-YKYK-OSu; configuration not given here) ? false

Cool, now CCc1c(-c2ccc(OC)cc2)oc(OC)c(C)c1=O false

Field entry: O=S(=O)(CCn1c(Sc2ccccc2)c(Sc2ccccc2)c2ccccc21)c1ccccc1 false

Would you mind doing O=[N+]([O-])c1c(/C=N/c2ccccc2)oc(-c2ccc3c(c2)OCO3)c1-c1ccc2c(c1)OCO2 as well? false

Moving on to the next compound: Nc1nc2[nH]cnc2c(=S)[nH]1 [THIOGUANINE] true

====

- Test system: NCI-H522
- measurement_description: NCI tumour cell line growth inhibition, 48 h
Active and inactive are the calls of the source. No stated cut-off is given here; in the data, active = GI50 up to about 1.1 µM and inactive = higher.
// allowed return values: active, inactive

These solved cases illustrate the format of a correct answer.
COc1cc(C23OCC(Cc4cc5c(cc42)OCO5)C3CO)cc(OC)c1OC (centres undefined)    inactive
N#C/C(N)=C(C#N)/N=C/NCCO    inactive
CC1(c2nc3cc(Cl)c(Cl)cc3[nH]2)CCC(C(=O)O)C(C)(C)O1 (centres undefined)    inactive
C[n+]1c(-c2ccc(/C=N\Nc3ccnc(N/N=C/c4ccc(-c5cn6ccsc6[n+]5C)cc4)n3)cc2)cn2ccsc21    inactive
O=[N+]([O-])c1ccc2c(c1)c1nn2CCCCOc2nn(c3ccc([N+](=O)[O-])cc23)CCCCO1    inactive

// param item: Cc1ccc(SCC(=O)C2=C(O)CCCC2=O)cc1 ; yields the recorded call inactive

# iterate: CC1=C[C@@H](C)C[C@]2(C)CC[C@H](O2)[C@]23CC[C@](CO)(C[C@H](O2)[C@@H]2O[C@@](C)(CC2=O)[C@@H](O)[C@H]2CC[C@@]4(CCC[C@@H](O4)[C@H](C)C(=O)O[C@H]4C[C@H]([C@]5(O)OCC[C@H](C)[C@@H]5O)O[C@H]4C=C1)O2)O3 active

Record: CCOc1ncn(-c2ccc(NC(=S)Nc3ncccn3)cc2)n1 inactive

Same question, COC(=O)c1ccccc1C1CN=NC12Cc1ccccc1C2=O (centres undefined) this time inactive
